target-of-assay: ER in MCF-7 cells (Homo sapiens (Human), UniProt P03372)
method-description: In-cell western (ICW) ER degradation assay in MCF-7 cells (Compounds A1-A70)
Assay type: cell-based
test-context: ER degradation, MCF-7 cells, 16 hrs treatment, 0.02 to 300 nM; read-out: MCF7 ICW DC50
Structures can show the parent of a compound that is named as a salt.
experimental-readout: DC50

C[C@H]1Cc2c([nH]c3ccccc23)[C@H](c2cnc(N3CCC4(CC3)C[C@@H](CN3CCN5c6cc7c(cc6OC[C@H]5C3)C(=O)N([C@@H]3CCC(=O)NC3=O)C7)CO4)nc2)N1CC(F)F :: < 1 nM

Consider the following items and state reported DC50 for each.
1. COc1cc(N2CCC(CN3CCN4c5ccc(C(=O)NC6CCC(=O)NC6=O)nc5OC[C@H]4C3)CC2)ccc1[C@@H]1c2[nH]c3ccccc3c2C[C@@H](C)N1CC(F)F (stereo partly shown) [Compound A51, formate]
2. COc1cc(N2CCC(CN3CCN4c5ccc6c(c5OC[C@H]4C3)CN([C@H]3CCC(=O)NC3=O)C6=O)CC2)ccc1[C@@H]1c2[nH]c3ccccc3c2C[C@@H](C)N1CC(F)F
3. COc1cc(N2CCC(CN3CCN4c5cc(F)c(C(=O)N[C@H]6CCC(=O)NC6=O)cc5OC[C@@H]4C3)CC2)ccc1[C@@H]1c2[nH]c3ccccc3c2C[C@@H](C)N1CC(F)F

1: < 1 nM; 2: 1 to 10 nM; 3: 1 to 10 nM

Consider the following items and state reported DC50 for each.
1. COc1cc(N2CCC(CN3CCN4c5ccc6c(c5OC[C@@H]4C3)CN([C@@H]3CCC(=O)NC3=O)C6=O)CC2)ccc1[C@@H]1c2[nH]c3ccccc3c2C[C@@H](C)N1CC(F)F
2. C[C@@H]1Cc2c([nH]c3ccccc23)[C@@H](c2cnc(N3CCC(CN4CCC5(CC4)COc4cc6c(cc45)CN(C4CCC(=O)NC4=O)C6=O)CC3)nc2)N1CC(F)(F)CO (stereo partly shown)
3. C[C@H]1Cc2c([nH]c3ccccc23)[C@H](c2cnc(N3CCC4(CC3)C[C@H](CN3CCN5c6ccc7c(c6OC[C@@H]5C3)CN([C@@H]3CCC(=O)NC3=O)C7=O)CO4)nc2)N1CC(F)F
4. COc1cc(N2CCC(CN3CCC(c4ccc(N[C@H]5CCC(=O)NC5=O)cc4F)CC3)CC2)ccc1[C@@H]1c2[nH]c3ccccc3c2C[C@@H](C)N1CC(F)F
5. COc1cc(N2CCC(CN3CCC(c4ccc(C(=O)NC5CCC(=O)NC5=O)nc4)CC3)CC2)ccc1[C@@H]1c2[nH]c3ccccc3c2C[C@@H](C)N1CC(F)F (stereo partly shown)

["< 1 nM", "1 to 10 nM", "< 1 nM", "> 100 nM", "< 1 nM"]

Consider the following items and state reported DC50 for each.
1. C[C@H]1Cc2c([nH]c3ccccc23)[C@H](c2cnc(N3CCC4(CC3)C[C@@H](CN3CCN5c6ccc7c(c6OC[C@@H]5C3)CN([C@@H]3CCC(=O)NC3=O)C7=O)CO4)nc2)N1CC(F)F [Compound A59, formate]
2. C[C@@H]1Cc2c([nH]c3ccccc23)[C@@H](c2cnc(N3CCO[C@H](CN4CCN5c6cc7c(cc6OC[C@@H]5C4)C(=O)N(C4CCC(=O)NC4=O)C7)C3)nc2)N1CC(C)(C)F (stereo partly shown)
3. COc1cc(N2CCC(CN3CCN(c4ccc(C(=O)N[C@H]5CCC(=O)NC5=O)nc4)CC3)CC2)ccc1[C@@H]1c2[nH]c3ccccc3c2C[C@@H](C)N1CC(F)F [Compound A43, formate]
4. COc1cc(N2CCC(CN3CCN4c5ccc6c(c5OC[C@H]4C3)CN([C@H]3CCC(=O)NC3=O)C6=O)CC2)ccc1[C@@H]1c2[nH]c3ccccc3c2C[C@@H](C)N1CC(C)(C)F

< 1 nM
1 to 10 nM
< 1 nM
< 1 nM

Consider the following items and state reported DC50 for each.
1. COc1cc(N2CCC(CN3CCN(c4ccc(C(=O)NC5CCC(=O)NC5=O)nc4OC)CC3)CC2)ccc1[C@@H]1c2[nH]c3ccccc3c2C[C@@H](C)N1CC(F)F (stereo partly shown)
2. C[C@@H]1Cc2c([nH]c3ccccc23)[C@@H](c2cnc(N3CCC4(CC3)C[C@@H](CN3CCC(c5ccc(N[C@@H]6CCC(=O)NC6=O)cc5)CC3)CO4)nc2)N1CC(F)F
3. COc1cc(N2CCC(CN3CCN4c5ccc(C(=O)NC6CCC(=O)NC6=O)nc5OC[C@H]4C3)CC2)ccc1[C@H]1c2[nH]c3ccccc3c2C[C@H](C)N1CC(F)F (stereo partly shown)

["< 1 nM", "< 1 nM", "< 1 nM"]

###

Please provide measured DC50 for the entries that follow.
target-of-assay: ER (Homo sapiens (Human), UniProt P03372)
Sequence (P03372 whole entry): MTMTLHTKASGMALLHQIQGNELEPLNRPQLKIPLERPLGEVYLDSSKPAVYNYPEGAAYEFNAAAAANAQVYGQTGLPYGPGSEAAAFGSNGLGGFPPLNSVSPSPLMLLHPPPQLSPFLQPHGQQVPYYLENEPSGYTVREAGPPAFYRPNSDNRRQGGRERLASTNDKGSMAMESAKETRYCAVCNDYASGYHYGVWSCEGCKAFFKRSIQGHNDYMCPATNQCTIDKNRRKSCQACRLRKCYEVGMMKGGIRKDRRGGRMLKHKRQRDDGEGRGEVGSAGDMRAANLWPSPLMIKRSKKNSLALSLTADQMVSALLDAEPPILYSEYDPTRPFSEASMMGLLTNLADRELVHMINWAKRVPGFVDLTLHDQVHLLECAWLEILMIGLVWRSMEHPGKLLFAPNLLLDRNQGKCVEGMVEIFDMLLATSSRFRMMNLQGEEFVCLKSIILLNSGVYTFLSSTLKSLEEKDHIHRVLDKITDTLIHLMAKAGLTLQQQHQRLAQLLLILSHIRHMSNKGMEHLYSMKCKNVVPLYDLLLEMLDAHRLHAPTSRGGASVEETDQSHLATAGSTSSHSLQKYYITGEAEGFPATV
method-description: In-cell western blot analysis of relative ER percentage (Compounds B1-B278)
Assay type: cell-based
test-context: ER degradation, 16 hours, read-out: ICW DC50

Consider the following items and state reported DC50 for each.
1. C[C@@H]1Cc2c([nH]c3ccccc23)[C@@H](c2ccc(N3CCC4(CC3)CC(CN3CCN5c6cc7c(cc6OC[C@@H]5C3)C(=O)N(C3CCC(=O)NC3=O)C7)CO4)cn2)N1CC(F)(F)F (stereo partly drawn) [Compound B269]
2. C[C@@H]1Cc2c([nH]c3ccccc23)[C@@H](c2cnc(N3CC4(CCC(CN5Cc6cc7c(cc6C5)C(=O)N(C5CCC(=O)NC5=O)C7=O)CC4)C3)nc2)N1CC(F)(F)CO (stereo partly drawn)
3. C[C@@H]1Cc2c([nH]c3ccccc23)[C@@H](c2ccc(N3CCC4(CC3)CC(CN3CCN5c6ccc7c(c6OC[C@H]5C3)CN(C3CCC(=O)NC3=O)C7=O)C4)nc2)N1CC(F)F (stereo partly drawn)
4. C[C@@H]1Cc2c([nH]c3ccccc23)[C@@H](c2c(F)cc(N3CCC(CN4CCN5c6ccc7c(c6OC[C@H]5C4)CN(C4CCC(=O)NC4=O)C7=O)CC3)cc2F)N1CC(C)(C)F (mixture of isomers) [Compound B257]

1. 10 to 100 nM
2. > 100 nM
3. > 100 nM
4. 10 to 100 nM

###

method-description: Cell growth assay (WST-8) (Compounds B1-B278)
Assay type: cell-based
test-context: 96 h; T47D cell line; WST-8, 4 days; read-out: Cell Growth Inhibition in T47D cell line IC50
pIC50: −log10 of the molar value.
experimental-readout: pIC50

Consider the following items and state reported pIC50 for each.
1. C[C@@H]1Cc2c([nH]c3ccccc23)[C@@H](c2c(F)cc(N3CCC(CN4CCN5c6c(ccc7c6CN(C6CCC(=O)NC6=O)C7=O)OC[C@@H]5C4)CC3)cc2F)N1CC(F)F (stereo partly shown)
2. C[C@@H]1Cc2c([nH]c3ccccc23)[C@@H](c2cnc(N3CCC4(CCC(N5CCN6c7cc8c(cc7OC[C@@H]6C5)C(=O)N(C5CCC(=O)NC5=O)C8)CC4)CC3)nc2)N1CC(C)(C)F (stereo partly shown)
3. C[C@@H]1Cc2c([nH]c3ccccc23)[C@@H](c2cnc(N3CCC(CN4CCN5c6ccc7c(c6OC[C@H]5C4)CN(C4CCC(=O)NC4=O)C7=O)CC3)nc2)N1CC(C)(C)F (mixture of isomers)
4. COc1cc(N2CCC3(CC2)OCC(CN2CCN4c5cc6c(cc5OC[C@H]4C2)C(=O)N(C2CCC(=O)NC2=O)C6)CO3)ccc1[C@@H]1c2[nH]c3ccccc3c2C[C@@H](C)N1CC(F)F (stereo partly shown)
5. C[C@@H]1Cc2c([nH]c3ccccc23)[C@@H](c2cnc(N3CC(CCN4CCN5c6cc7c(cc6OC[C@@H]5C4)C(=O)N(C4CCC(=O)NC4=O)C7)C3)nc2)N1CC(F)F (stereo partly shown)
6. C[C@@H]1Cc2c([nH]c3ccccc23)[C@@H](c2cnc(N3CCC(OCCN4CCN5c6cc7c(cc6OC[C@@H]5C4)C(=O)N([C@@H]4CCC(=O)NC4=O)C7)CC3)nc2)N1CC(F)F

> 9.00
8.00 to 9.00
> 9.00
8.00 to 9.00
< 8.00
8.00 to 9.00

Consider the following items and state reported pIC50 for each.
1. C[C@@H]1Cc2c([nH]c3ccccc23)[C@@H](c2c(F)cc(N3CCC4(CC3)CC(CN3CCN5c6ccc7c(c6OC[C@H]5C3)CN(C3CCC(=O)NC3=O)C7=O)CO4)cc2F)N1CC(F)(F)CO (stereo partly shown)
2. C[C@@H]1Cc2c([nH]c3ccccc23)[C@@H](c2cnc(N3CCC(CN4CCC5(CCOc6c5ccc5c6CN(C6CCC(=O)NC6=O)C5=O)CC4)CC3)nc2)N1CC(F)F (stereo partly shown)
3. C[C@@H]1Cc2c([nH]c3ccccc23)[C@@H](c2cnc(N3CC4(CC(CN5CCN6c7ccc8c(c7OC[C@H]6C5)CN(C5CCC(=O)NC5=O)C8=O)C4)C3)nc2)N1CC(F)F (stereo partly shown)
4. COc1c2c(cc3c1CN(C1CCC(=O)NC1=O)C3=O)CN(CC(=O)N1CCC3(CC1)CCN(c1ncc([C@@H]4c5[nH]c6ccccc6c5C[C@@H](C)N4CC(F)F)cn1)CC3)C2 (stereo partly shown)

["8.00 to 9.00", "8.00 to 9.00", "< 8.00", "> 9.00"]
